- Experimental System: RARβ (Homo sapiens, UniProt P10826)
- Sequence (P10826 1-448 isoform P10826-2): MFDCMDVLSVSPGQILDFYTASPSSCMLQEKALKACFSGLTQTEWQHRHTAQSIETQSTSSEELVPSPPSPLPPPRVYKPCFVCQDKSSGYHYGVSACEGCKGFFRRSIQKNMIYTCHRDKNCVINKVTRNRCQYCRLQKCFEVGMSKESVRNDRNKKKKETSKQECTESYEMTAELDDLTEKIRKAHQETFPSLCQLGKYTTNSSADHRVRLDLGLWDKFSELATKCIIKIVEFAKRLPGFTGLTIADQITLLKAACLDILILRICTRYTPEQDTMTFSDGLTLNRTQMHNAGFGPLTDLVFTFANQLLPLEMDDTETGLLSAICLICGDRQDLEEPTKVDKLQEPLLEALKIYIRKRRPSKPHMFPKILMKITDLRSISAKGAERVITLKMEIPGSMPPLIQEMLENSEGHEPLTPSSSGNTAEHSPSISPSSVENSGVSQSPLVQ
- Protocol Details: Co-transfection assay, RARβ agonist activity
- Test Context: CV-1 cells, luciferase reporter, read-out: RARβ Pot
A collection of compounds and their measured EC50

Form field EC50, entry CC(/C=C/CC1(c2cc3c(cc2C)C(C)(C)CCC3(C)C)CC1)=C\C(=O)O [Compound 102] : > 10 µM

Form field EC50, entry CC(/C=C/CC1(c2cc(C(C)(C)C)cc3c2CCC3(C)C)CC1)=C\C(=O)O [Compound 107] : > 10 µM

Form field EC50, entry CC(/C=C/CC1(c2ccc3c(c2)C(C)(C)CCC3(C)C)CC1)=C\C(=O)O [Compound 101] : 0.017 µM

Form field EC50, entry CC(/C=C/CC1(c2ccc3c(c2)C(C)(C)CCC3(C)C)CCCC1)=C\C(=O)O [Compound 108] : > 10 µM
